Source of measurements: patent US20130029970A1

biological target: human CB2 receptors (Homo sapiens, UniProt P34972); construct: (cDNA clone) CNR0200000; experiment: cAMP assay in HEK-293 cells, hCB2 agonist; type: cell-based
Sequence (P34972 whole entry): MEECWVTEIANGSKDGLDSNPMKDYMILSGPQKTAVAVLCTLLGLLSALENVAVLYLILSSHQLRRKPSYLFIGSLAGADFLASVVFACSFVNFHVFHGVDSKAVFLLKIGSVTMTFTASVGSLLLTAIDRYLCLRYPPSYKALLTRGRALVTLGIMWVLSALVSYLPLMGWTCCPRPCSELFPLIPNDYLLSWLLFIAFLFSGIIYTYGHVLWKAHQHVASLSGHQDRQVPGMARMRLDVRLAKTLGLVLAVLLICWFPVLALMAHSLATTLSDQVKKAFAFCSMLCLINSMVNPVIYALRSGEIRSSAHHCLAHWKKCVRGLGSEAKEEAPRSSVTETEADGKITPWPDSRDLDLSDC
pEC50: −log10 of the molar value.
Reported Endpoint: pEC50

[
  {
    "Molecule": "Cc1cc2cc(C(=O)c3cccc(Cl)c3Cl)sc2n1CCN1CCCC1 [Compound 28]",
    "pEC50": "> 7.00"
  }
]

Query: Param readout = pEC50; param system = human CB2 receptors (Homo sapiens, UniProt P34972); param query = COc1ccc(C(=O)c2cc3cc(C)n(CCNS(C)(=O)=O)c3s2)cc1 [Compound 71] ; response: value
Response: 6.00 to 7.00

Query: API: value(readout=pEC50, system=human CB2 receptors (Homo sapiens, UniProt P34972)) for record Cc1cc2cc(C(=O)c3cccc(Cl)c3Cl)sc2n1CCN1CCOCC1 [Compound 1]
Response: > 7.00

Query: Form entry - test system: human CB2 receptors (Homo sapiens, UniProt P34972); read-out: pEC50; molecule: COc1ccc(C(=O)c2cc3c(Cl)c(C)n(CCN4CCOCC4)c3s2)cc1 [Compound 140]
Response: > 7.00

Query: # query: pEC50 | item COc1ccc(C(=O)c2cc3cc(C)[nH]c3s2)c(Cl)c1 [Compound 79] | system: human CB2 receptors (Homo sapiens, UniProt P34972)
Response: 6.00 to 7.00

Query: Kindly state the measured pEC50 obtained for COc1ccc(C(=O)c2cc3cc(C)n(CCN4CCCC4)c3s2)cc1 [Compound 83] with human CB2 receptors (Homo sapiens, UniProt P34972).
Response: > 7.00

Query: Please provide the recorded pEC50 for COc1ccccc1C(=O)c1cc2cc(C)n(CCN3CCOCC3)c2s1 [Compound 13] , tested on human CB2 receptors (Homo sapiens, UniProt P34972).
Response: > 7.00

Query: Short answer please: pEC50, human CB2 receptors (Homo sapiens, UniProt P34972), entry COc1ccc(C(=O)c2cc3cc(C)n(CCN4CCOCC4)c3s2)c(Cl)n1 [Compound 137]
Response: > 7.00

Query: Param readout = pEC50; param system = human CB2 receptors (Homo sapiens, UniProt P34972); param query = COc1ccc(C(=O)c2cc3cc(C)n(CCCNC(=O)C(F)(F)F)c3s2)cc1 [Compound 76] ; response: value
Response: 6.00 to 7.00
